PROTOCOL_DESCRIPTION: Interaction with the stable radical DPPH
MEASUREMENT_PARAMETERS: 0.05 mM, 60 min
Each record here notes measured RA % (±SD), DPPH.
Number in %, nothing else.

Illustrative cases are given below, each with its answer.
O=C(O)C=CC=Cc1ccc([N+](=O)[O-])cc1; 13
O=C(O)C(=CC=Cc1ccccc1)c1ccccc1; 3

# RA % (±SD), DPPH of O=C(O)C(=CC=Cc1ccc([N+](=O)[O-])cc1)c1ccccc1 = 11

Data point: O=C(O)C=CC(Br)=Cc1ccccc1 ; RA % (±SD), DPPH = 13

The reported RA % (±SD), DPPH of the molecule N#Cc1ccc(C=C(C(=O)O)c2ccccc2)cc1 was 14

Looking up N#Cc1ccc(C=CC(=O)O)cc1 , I see its RA % (±SD), DPPH listed as 9

Entry CC(Cc1ccc(O)c(O)c1)C(C)Cc1ccc(O)c(O)c1 (stereo not drawn) [NDGA, nordihydroguaretic acid, reference compound] — recorded RA % (±SD), DPPH = 83

Per the record, O=C(O)C(=CC(Br)=Cc1ccccc1)c1ccccc1 has RA % (±SD), DPPH of 4

Value of measured RA % (±SD), DPPH for the entry O=C(O)C=CC=Cc1ccccc1 : 7
